From: paper PMC5522039

- ASSAYED SYSTEM: T1, Human PD-L1 Fc-fusion protein (R&D Systems, 156-B7) (Homo sapiens, UniProt Q9NZQ7)
- T1 construct: programmed death-ligand 1 (PD-L1, B7-H1, CD274), human; also called huPD-L1; B7-H1; source: bought: R&D Systems (156-B7)
- T1 sequence (Q9NZQ7 19-238): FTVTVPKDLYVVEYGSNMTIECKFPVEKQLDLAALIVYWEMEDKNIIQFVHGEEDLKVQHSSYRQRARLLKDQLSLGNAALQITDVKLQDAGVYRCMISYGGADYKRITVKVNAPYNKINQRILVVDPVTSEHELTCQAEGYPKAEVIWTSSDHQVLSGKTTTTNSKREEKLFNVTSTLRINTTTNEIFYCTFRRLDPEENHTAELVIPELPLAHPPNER
- ASSAY COMMENT: SPR; Biacore T200, 25°C, HBS (0.01 M HEPES pH 7.4, 0.15 M NaCl, 3 mM EDTA, 0.005% Tween 20); mouse or human PD-L1 Fc-fusion protein amine-coupled on a CM5 chip (650-900 RU); Nb in crude periplasmic extract as analyte, its concentration estimated by CFCA; 9 dilutions, 120 s association, 160 s dissociation; 1-to-1 fit; affinity estimations
- RECORDED CONDITIONS: one partner purified
In this section, each of the binders is paired with its reported Kd.
Output spec: scalar in nM, unitless text.

Take a look at these entries with their results.
Nb G3 (HA-tagged, in periplasmic extract) (VHH, source: E. coli WK6 (pHEN4), crude periplasmic extract) VHH: QVQLQESGGGLVQTGGSLRLSCAASGSISSFNFMGWYRQAPGKQRELVALSTNSGVTNVAGSVKGRFTISRDNAKTTVYLQMNSLKPEDTAVYYCRVGAMGNLYWGQGTQVTVSS: 907
Nb A1 (HA-tagged, in periplasmic extract) (VHH, source: E. coli WK6 (pHEN4), crude periplasmic extract) VHH: QVQLQESGGGLVQPGGSLRLSCAASGFTLDYYAIGWFRQAPGKEREGVSCISSSDGSTYYADSVKGRFTISRDNAKNTVYLQMSSLKPEDTAVYYCGISGSCLLEDYGMDYWGKGTQVTVSS: 23

Please give the measured Kd for this binder: Nb G4 (HA-tagged, in periplasmic extract) (VHH, source: E. coli WK6 (pHEN4), crude periplasmic extract) VHH: QVQLQESGGGLVQAGGSLRLSCAASGSISSFNFMGWYRQAPGKQRELVALSTNSGVTNVAGSVKGRFTISRDNAKTTVYLQMNSLKPEDTAVYYCRVGAMGNLYWGQGTQVTVSS
74
